experiment notes: Half life in Beagle dog at 1 mg/kg, iv administered with 40% PEG400 and 60% glycerol
Assay type: ADME, organism-based, Canis lupus familiaris
Set-up: dose 1 mg/kg, route intravenous
run parameters: in vivo
measured endpoint: half-life

Documented half-life of "Cc1n[nH]c2c(C)cc(C(=O)N3CCC4(CC3)CC(=O)c3c(ccnc3OC(C)C)O4)cc12" : 6.1 h

====

Data export: log10 IC50 values recorded with Acetyl-CoA carboxylase 1 (Rattus norvegicus).
# log10 transformed; quantity=IC50; unit=nM

Recorded log10 IC50, per entry:
smiles data	log10 IC50
COc1cccc2c1C(=O)CC1(CCN(C(=O)c3cc(C)c4nc[nH]c4c3)CC1)O2	2.24
Cc1cc(C(=O)N2CCC3(CC2)CC(=O)c2nc(N)ccc2O3)cc2cn[nH]c12	3.13
COc1cccc2c1C(=O)CC1(CCN(C(=O)c3ccc4nc(-c5ccn(C)n5)[nH]c4c3)CC1)O2	1.28
COc1cccc2c1C(=O)CC1(CCN(C(=O)c3ccc4nc(-c5cccnc5)[nH]c4c3)CC1)O2	1.41
Cc1cc(C(=O)N2CCC3(CC2)CC(=O)c2c(ccnc2OCC(C)C)O3)cc2cn[nH]c12	1.36

Batch lookup, log10 IC50 per entry.
1. COc1cccc2c1C(=O)CC1(CCN(C(=O)c3ccc4nc(-c5ccnnc5)[nH]c4c3)CC1)O2
2. COc1cccc2c1C(=O)CC1(CCN(C(=O)c3ccc4nn[nH]c4c3)CC1)O2
3. COc1cccc2c1C(=O)CC1(CCN(C(=O)c3cc(C)c4[nH]c(C(N)=O)cc4c3)CC1)O2

Output:
[2.00, 3.47, 1.81]

The molecule listed as "Cc1ccc2cc(CC3CCN(C(=O)c4ccnc5ccccc45)CC3)ccc2n1" shows log10 IC50 equal to 3.95

====

experiment notes: Oral bioavailability in rat at 3 mg/kg administered with lipid emulsion
Assay type: ADME, organism-based
run parameters: in vivo
measured endpoint: bioavailability
Remember to quote the unit after the number.

The recorded bioavailability for entry "Cc1n[nH]c2c(C)cc(C(=O)N3CCC4(CC3)CC(=O)c3c(ccnc3OC(C)C)O4)cc12" equals 8%

====

Consider the following molecules; for each one, report its IC50.
test system: UniProtKB O00763
Sequence (O00763 whole entry): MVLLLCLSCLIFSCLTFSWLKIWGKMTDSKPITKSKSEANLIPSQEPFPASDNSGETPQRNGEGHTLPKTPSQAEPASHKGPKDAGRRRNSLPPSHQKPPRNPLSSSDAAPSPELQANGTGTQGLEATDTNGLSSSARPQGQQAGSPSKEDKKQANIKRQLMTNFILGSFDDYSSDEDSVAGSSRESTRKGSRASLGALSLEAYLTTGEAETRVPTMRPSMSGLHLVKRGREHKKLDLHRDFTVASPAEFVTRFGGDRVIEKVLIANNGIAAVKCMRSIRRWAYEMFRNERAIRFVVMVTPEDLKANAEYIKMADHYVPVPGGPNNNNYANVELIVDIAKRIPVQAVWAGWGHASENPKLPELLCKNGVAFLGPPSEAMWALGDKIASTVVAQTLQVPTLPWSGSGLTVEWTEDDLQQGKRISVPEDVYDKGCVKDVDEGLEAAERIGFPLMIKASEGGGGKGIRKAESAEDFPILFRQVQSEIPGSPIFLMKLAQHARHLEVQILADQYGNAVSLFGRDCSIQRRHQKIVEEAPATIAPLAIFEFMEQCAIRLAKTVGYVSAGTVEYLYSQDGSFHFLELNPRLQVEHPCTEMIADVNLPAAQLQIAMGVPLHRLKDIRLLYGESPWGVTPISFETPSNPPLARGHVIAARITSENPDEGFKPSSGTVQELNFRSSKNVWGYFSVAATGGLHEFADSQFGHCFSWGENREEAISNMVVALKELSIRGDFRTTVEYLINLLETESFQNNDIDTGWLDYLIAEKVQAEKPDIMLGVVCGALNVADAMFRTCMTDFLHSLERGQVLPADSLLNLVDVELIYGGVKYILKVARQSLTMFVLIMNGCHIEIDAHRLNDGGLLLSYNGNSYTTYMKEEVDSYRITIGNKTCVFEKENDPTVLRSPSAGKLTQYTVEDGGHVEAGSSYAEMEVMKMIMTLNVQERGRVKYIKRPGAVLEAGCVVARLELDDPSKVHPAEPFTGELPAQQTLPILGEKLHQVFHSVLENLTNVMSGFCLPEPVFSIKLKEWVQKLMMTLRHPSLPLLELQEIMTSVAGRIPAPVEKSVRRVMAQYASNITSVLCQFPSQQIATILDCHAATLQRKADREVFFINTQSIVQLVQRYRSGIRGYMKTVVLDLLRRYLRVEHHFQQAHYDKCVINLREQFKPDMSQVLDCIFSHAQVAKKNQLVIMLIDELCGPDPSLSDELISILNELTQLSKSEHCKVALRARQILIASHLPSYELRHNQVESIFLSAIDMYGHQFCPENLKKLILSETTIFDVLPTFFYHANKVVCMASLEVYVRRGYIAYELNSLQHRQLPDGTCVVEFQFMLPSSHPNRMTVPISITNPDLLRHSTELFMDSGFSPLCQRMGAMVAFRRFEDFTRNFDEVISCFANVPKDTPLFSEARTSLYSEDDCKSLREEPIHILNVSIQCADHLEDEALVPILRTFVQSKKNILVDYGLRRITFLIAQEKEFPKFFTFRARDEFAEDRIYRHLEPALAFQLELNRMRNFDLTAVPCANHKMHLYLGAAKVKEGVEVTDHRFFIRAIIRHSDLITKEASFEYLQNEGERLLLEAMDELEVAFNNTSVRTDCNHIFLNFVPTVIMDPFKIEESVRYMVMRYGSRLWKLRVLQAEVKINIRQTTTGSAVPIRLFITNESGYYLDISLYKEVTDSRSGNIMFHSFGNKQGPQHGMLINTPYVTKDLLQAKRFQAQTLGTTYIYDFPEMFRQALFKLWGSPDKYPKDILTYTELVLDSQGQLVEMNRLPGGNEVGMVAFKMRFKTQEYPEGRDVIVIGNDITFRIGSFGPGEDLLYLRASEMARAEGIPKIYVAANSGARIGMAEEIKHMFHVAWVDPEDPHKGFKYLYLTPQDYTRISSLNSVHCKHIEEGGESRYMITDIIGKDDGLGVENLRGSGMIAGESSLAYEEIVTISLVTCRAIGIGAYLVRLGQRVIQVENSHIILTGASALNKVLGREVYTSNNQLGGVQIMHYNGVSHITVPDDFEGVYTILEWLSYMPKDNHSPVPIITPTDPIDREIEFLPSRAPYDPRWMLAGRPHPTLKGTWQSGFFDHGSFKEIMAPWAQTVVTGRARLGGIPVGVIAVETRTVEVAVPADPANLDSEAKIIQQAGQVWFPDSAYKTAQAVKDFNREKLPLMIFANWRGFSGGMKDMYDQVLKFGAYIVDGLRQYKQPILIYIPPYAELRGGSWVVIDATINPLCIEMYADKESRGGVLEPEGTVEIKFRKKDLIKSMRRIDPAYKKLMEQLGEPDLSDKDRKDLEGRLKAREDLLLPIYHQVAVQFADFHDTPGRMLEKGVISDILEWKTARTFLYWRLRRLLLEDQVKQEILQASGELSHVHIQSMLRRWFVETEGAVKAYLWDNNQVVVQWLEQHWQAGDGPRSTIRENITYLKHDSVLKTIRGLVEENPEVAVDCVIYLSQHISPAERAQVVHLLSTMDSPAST
experiment notes: Inhibition of human recombinant ACC2 expressed in CHO cells after 1 hr by fluorescence reader
Answers are plain numbers, in µM.

Check out these entries, answers already filled in.
smiles data	IC50 (µM)
O=C1CC2(CCN(C(=O)c3cccc4cn[nH]c34)CC2)Oc2ccc(Cl)cc21	2.13
Cc1nc(-c2ccc3c(c2)C(=O)CC2(CCN(C(=O)c4cc(C)c5[nH]ncc5c4)CC2)O3)co1	0.03
COc1cccc2c1C(=O)CC1(CCN(C(=O)c3cc(C)c4[nH]ncc4c3)CC1)O2	0.0065
COc1cccc2c1C(=O)CC1(CCN(C(=O)c3ccc4[nH]c(-c5ccccn5)nc4c3)CC1)O2	0.012
Cc1cc(C(=O)N2CCC3(CC2)CC(=O)c2c(ccnc2OCC(C)C)O3)cc2cn[nH]c12	0.098
COc1cccc2c1C(=O)CC1(CCN(C(=O)c3ccc4nc(-c5cccnc5)[nH]c4c3)CC1)O2	0.019
COc1cccc2c1C(=O)CC1(CCN(C(=O)c3cc(C)c4[nH]c(C(N)=O)cc4c3)CC1)O2	0.016
Cc1ncc(-c2ccc3c(c2)C(=O)CC2(CCN(C(=O)c4cc(C)c5[nH]ncc5c4)CC2)O3)o1	0.039

API: the following record is the query input.
// sample "COc1cccc2c1C(=O)CC1(CCN(C(=O)c3ccc4nc(-c5ccncc5)[nH]c4c3)CC1)O2" , its IC50 was 0.051

====

test system: UniProt:O00763
experiment notes: Inhibition of human recombinant ACC2 expressed in CHO cells after 1 hr by fluorescence reader
measured endpoint: pIC50
Answers are plain numbers, as −log10 of the molar value.

Answered cases to consult:
smiles data	test system	pIC50
Cc1cc2c(cc1C)C(=O)CC1(CCN(C(=O)c3cccc4cn[nH]c34)CC1)O2	UniProt:O00763	6.40
CNC(=O)c1cc2cc(C(=O)N3CCC4(CC3)CC(=O)c3c(OC)cccc3O4)ccc2[nH]1	UniProt:O00763	7.96
COc1cccc2c1C(=O)CC1(CCN(C(=O)c3cc(C)c4nc[nH]c4c3)CC1)O2	UniProt:O00763	6.90
Cc1cc(C(=O)N2CCC3(CC2)CC(=O)c2c(ccnc2OC(C)C)O3)cc2cn[nH]c12	UniProt:O00763	8.35
COc1cccc2c1C(=O)CC1(CCN(C(=O)c3ccc4c(C)n[nH]c4c3)CC1)O2	UniProt:O00763	6.79

I'm hoping you can list pIC50 for every compound here, please.
1. Cc1noc(C)c1-c1ccc2c(c1)C(=O)CC1(CCN(C(=O)c3cc(C)c4[nH]ncc4c3)CC1)O2
2. Cc1n[nH]c2c(C)cc(C(=O)N3CCC4(CC3)CC(=O)c3ncccc3O4)cc12
3. COc1cccc2c1C(=O)CC1(CCN(C(=O)c3cc(C)c4[nH]nc(C)c4c3)CC1)O2

Output:
1. 8.19
2. 6.44
3. 7.96

====

experiment notes: Volume of distribution at steady state in Beagle dog at 1 mg/kg, iv administered with 40% PEG400 and 60% glycerol
Format: ADME, organism-based, Canis lupus familiaris
Set-up: dose 1 mg/kg, route intravenous
run parameters: in vivo, read-out: Vdss
measured endpoint: Vd (L/kg)
Numbers only, in L/kg.

For "Cc1n[nH]c2c(C)cc(C(=O)N3CCC4(CC3)CC(=O)c3c(ccnc3OC(C)C)O4)cc12" the molecule record lists Vd as 1.6

====

For each of the compounds below, state its IC50.
test system: Acetyl-CoA carboxylase 1 (Rattus norvegicus)
experiment notes: Inhibition of rat liver ACC1 after 7 mins by liquid scintillation counter

// worked examples, IC50 included
smiles data	IC50
Cc1cc(C(=O)N2CCC3(CC2)CC(=O)c2cc(-c4cnn(C)c4)ccc2O3)cc2cn[nH]c12	7.5 nM
Cc1cc(C(=O)N2CCC3(CC2)CC(=O)c2cc(-c4cc[nH]n4)ccc2O3)cc2cn[nH]c12	18 nM
COc1cccc2c1C(=O)CC1(CCN(C(=O)c3ccc4[nH]c(C(N)=O)nc4c3)CC1)O2	35 nM

Provide reported IC50 for each item, in the same order as listed.
1. CNC(=O)c1cc2cc(C(=O)N3CCC4(CC3)CC(=O)c3c(OC)cccc3O4)ccc2[nH]1
2. Cc1cc(C(=O)N2CCC3(CC2)CC(=O)c2c(ccnc2OC(C)C)O3)cc2cn[nH]c12
3. Cc1ncc(-c2ccc3c(c2)C(=O)CC2(CCN(C(=O)c4cc(C)c5[nH]ncc5c4)CC2)O3)o1
4. Cn1cc(-c2cc3c(cn2)OC2(CCN(C(=O)c4ccc5nc(-c6ccn(C)n6)[nH]c5c4)CC2)CC3=O)cn1

Output:
1. 43 nM
2. 30 nM
3. 17 nM
4. 975 nM

====

experiment notes: Volume of distribution at steady state in rat at 1 mg/kg, iv administered with methylcellulose
Format: ADME, organism-based
Design: dose 1 mg/kg, route intravenous
run parameters: in vivo, read-out: Vdss
measured endpoint: Vd
Quote the value and follow it with the unit of measurement.

Vd reading for "Cc1n[nH]c2c(C)cc(C(=O)N3CCC4(CC3)CC(=O)c3c(ccnc3OC(C)C)O4)cc12" : 3.3 L/kg

====

experiment notes: Volume of distribution at steady state in rat at 1 mg/kg, iv
Assay type: ADME, organism-based
Design: dose 1 mg/kg, route intravenous
run parameters: in vivo, read-out: Vdss
measured endpoint: Vd

smiles data	result
Cc1ccc2cc(CC3CCN(C(=O)c4cccc(-c5cc[nH]n5)c4)CC3)ccc2n1	2.8 L/kg

Lab note: next compound to report on.
Value of measured Vd for the entry "Cc1ccc2cc(CC3CCN(C(=O)c4cccc5cn[nH]c45)CC3)ccc2n1" : 2.4 L/kg

====

experiment notes: Oral bioavailability in rat at 5 mg/kg
Format: ADME, organism-based
run parameters: in vivo
Assign bioavailability to each entry below.
One number for each entry, in %.

smiles data	measured endpoint	quantitative result
Cc1ccc2cc(CC3CCN(C(=O)c4cccc5cn[nH]c45)CC3)ccc2n1	bioavailability	45

The molecule listed as "Cc1ccc2cc(CC3CCN(C(=O)c4cccc(-c5cc[nH]n5)c4)CC3)ccc2n1" shows bioavailability equal to 7

====

experiment notes: Clearance in rat at 1 mg/kg, iv
Type: ADME, organism-based
Set-up: dose 1 mg/kg, route intravenous
run parameters: in vivo
For each record, write down the corresponding clearance.
Give bare numbers, in mL/min/kg.

smiles data	value units	clearance
Cc1ccc2cc(CC3CCN(C(=O)c4cccc5cn[nH]c45)CC3)ccc2n1	mL/min/kg	44.3

# clearance of "Cc1ccc2cc(CC3CCN(C(=O)c4cccc(-c5cc[nH]n5)c4)CC3)ccc2n1" = 34.1
